run.description: qHTS assay for identifying genotoxic compounds that show differential cytotoxicity against isogenic chicken DT40 cell lines with known DNA damage response pathways - Rev3 mutant cell line (AID 743014); also: nearly all actives have a fitted effect of over 55% in size
protocol.conditions: chicken DT40 Rev3-/- viability, CellTiter-Glo, 40 h; series mostly up to 68.4 µM
Records with an inconclusive call do not appear. The source made the active and inactive calls. Calls follow the shape of the dose curve; as a rule, active = well fitted cell-killing curve with a large enough effect in the repeat runs; inconclusive = weak or mixed curves, or effect the other way; inactive = no such curve, though single readings can be large or run the other way.
Select the matching outcome among label 1 = active, label 0 = inactive

Here are 6 compounds together with their reported answers.
compound: CC(=O)OCc1ccco1
cat: label 1

compound: CCOCCOCCOCCO
cat: label 0

compound: N[C@H](Cc1c[nH]c2ccccc12)C(=O)O
cat: label 0

compound: CN1C(=O)CC[C@H]1c1cccnc1
cat: label 0

compound: C=C(C)CNCC
cat: label 0

compound: Cc1ccc2ncccc2c1
cat: label 0

Inquiry: What outcome does the record of this test show for COCCOC(=O)c1ccccc1C(=O)OCCOC ?
Reply text: label 0

Inquiry: What outcome does the record of this test show for CC(C)CC(=O)CC(C)CC(C)C (stereo not given) ?
Reply text: label 0

---

tested.on: Progesterone receptor (Homo sapiens) (UniProt P06401)
Sequence (P06401 whole entry, looked up): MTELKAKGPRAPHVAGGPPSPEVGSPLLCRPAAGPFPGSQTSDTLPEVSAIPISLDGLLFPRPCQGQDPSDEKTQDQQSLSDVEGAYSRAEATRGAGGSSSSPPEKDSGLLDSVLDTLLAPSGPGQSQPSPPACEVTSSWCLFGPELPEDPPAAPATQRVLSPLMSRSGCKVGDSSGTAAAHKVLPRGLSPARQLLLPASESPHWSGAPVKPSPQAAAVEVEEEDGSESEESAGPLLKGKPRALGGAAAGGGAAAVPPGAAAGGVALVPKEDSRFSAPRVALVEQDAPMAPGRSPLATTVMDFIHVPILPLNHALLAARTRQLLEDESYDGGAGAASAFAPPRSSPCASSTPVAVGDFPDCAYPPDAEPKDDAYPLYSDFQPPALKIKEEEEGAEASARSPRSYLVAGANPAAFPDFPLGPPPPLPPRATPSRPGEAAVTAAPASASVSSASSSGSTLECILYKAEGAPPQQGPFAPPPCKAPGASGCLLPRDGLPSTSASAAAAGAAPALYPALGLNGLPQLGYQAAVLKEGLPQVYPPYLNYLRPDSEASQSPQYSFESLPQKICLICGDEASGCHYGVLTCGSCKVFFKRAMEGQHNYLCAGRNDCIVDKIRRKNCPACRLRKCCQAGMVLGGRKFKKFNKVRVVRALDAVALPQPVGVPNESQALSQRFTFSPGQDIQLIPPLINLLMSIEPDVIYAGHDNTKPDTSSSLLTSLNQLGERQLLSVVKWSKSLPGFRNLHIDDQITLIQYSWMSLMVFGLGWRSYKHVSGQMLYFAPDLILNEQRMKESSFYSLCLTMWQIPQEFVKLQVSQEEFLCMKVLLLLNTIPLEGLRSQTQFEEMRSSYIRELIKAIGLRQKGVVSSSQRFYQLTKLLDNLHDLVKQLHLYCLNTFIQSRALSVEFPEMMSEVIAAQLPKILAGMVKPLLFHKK
run.description: qHTS assay to identify small molecule antagonists of the progesterone receptor (PR) signaling pathway (AID 1346795)
protocol.conditions: PR-UAS-bla HEK293T, beta-lactamase FRET ratio, 16 h; series mostly up to 92.4 µM
Inconclusive results are not listed. The source made the active and inactive calls. The call rests on the fitted dose curve; in most records, active means well fitted inhibition curve with a large enough effect in the signal ratio in the repeat runs (not every such curve was filed as active); inconclusive means weak or mixed curves; inactive means flat fitted curve, though single readings scatter; the % refers to the signal ratio.
Select the matching outcome among True for active, False for inactive

compound: C=C(C)C(=O)OCC(C)C
cat: False

Inquiry: What outcome does the record of this test show for OCc1cccc(Oc2ccccc2)c1 ?
Reply text: True

Inquiry: What outcome does the record of this test show for C=CC(=O)OCCC(=O)O ?
Reply text: False

---

tested.on: Retinoic acid receptor RXR-alpha (Homo sapiens)
run.description: qHTS assay to identify small molecule agonists of the RXR signaling pathway (AID 1159527); also: % is scaled to controls: 0 for no effect and ±100 for the full control effect; nearly all actives have a fitted effect of over 35% in size
protocol.conditions: HEK293T RXRa-UAS-bla, beta-lactamase ratio, 16 h; series mostly up to 76.8 µM
Results filed as inconclusive are left out. Active and inactive are the calls of the source. The call rests on the fitted dose curve.
Select the matching outcome among yes (active), no (inactive)

Here are 3 molecules together with their reported answers.
molecule: O=C1C(c2[nH]c3ccccc3c2O)=Nc2ccccc21
cat: no
//
molecule: Cc1ccc(S(=O)(=O)N=C=O)cc1
cat: no
//
molecule: CCCOC(=O)c1ccccc1
cat: no

Inquiry: What outcome does the record of this test show for CCCCCCCO ?
Reply text: no

Inquiry: What outcome does the record of this test show for COc1ccc(N)c(C)c1 ?
Reply text: no

Inquiry: What outcome does the record of this test show for OCc1ccccc1 ?
Reply text: no

Inquiry: What outcome does the record of this test show for COc1ccc(OC)cc1 ?
Reply text: no

Inquiry: What outcome does the record of this test show for CCCCCCCC=O ?
Reply text: no

Inquiry: What outcome does the record of this test show for CC(C)OC(=O)COc1ccc(Cl)cc1Cl ?
Reply text: no

Inquiry: What outcome does the record of this test show for NCCN1CCNCC1 ?
Reply text: no

---

tested.on: Cytochrome P450 2C9 (Homo sapiens)
run.description: Cytochrome P450 Family 2 Subfamily C Member 9 (CYP2C9) small molecule antagonists: luciferase reporter qHTS assay (AID 1671198); also: nearly all actives have a fitted effect of over 50% in size
protocol.conditions: P450-Glo CYP2C9 enzyme assay, luciferin luminescence; series mostly up to 115 µM
Results filed as inconclusive are left out. Active and inactive are the calls of the source. Calls follow the shape of the dose curve; as a rule, active = well fitted inhibition curve with a large enough effect in the repeat runs; inconclusive = weak or mixed curves; inactive = no such curve, though single readings can be large or run the other way.
Select the matching outcome among yes = active, no = inactive

Here are 5 compounds together with their reported answers.
compound: CCOC(=O)c1ccc(N)cc1
cat: yes
--
compound: CCO[Si](CCC#N)(OCC)OCC
cat: no
--
compound: O=C(O)c1ccc(S(=O)(=O)N(Cl)Cl)cc1
cat: no
--
compound: CC1(C)OC[C@@H]2O[C@@]3(C(=O)O)OC(C)(C)O[C@H]3[C@@H]2O1
cat: no
--
compound: CC1(C)NC(=O)NC1=O
cat: no

Inquiry: What outcome does the record of this test show for O=C1C(c2[nH]c3ccccc3c2O)=Nc2ccccc21 ?
Reply text: no

Inquiry: What outcome does the record of this test show for CC(=O)OCCOC(C)=O ?
Reply text: no

Inquiry: What outcome does the record of this test show for CCCOC(=O)c1ccccc1 ?
Reply text: no

Inquiry: What outcome does the record of this test show for C[C@]12CCC(=O)C=C1CC[C@@H]1[C@@H]2[C@@H](O)C[C@@]2(C)[C@H]1CC[C@]2(O)C(=O)CO ?
Reply text: no

Inquiry: What outcome does the record of this test show for C=C(C)C(=O)OCC(C)C ?
Reply text: no

Inquiry: What outcome does the record of this test show for C=CC(=O)OCCC(=O)O ?
Reply text: no

Inquiry: What outcome does the record of this test show for C=CC[N+](C)(C)CC=C ?
Reply text: no

Inquiry: What outcome does the record of this test show for CC(C)=CCl ?
Reply text: no

Inquiry: What outcome does the record of this test show for NCCN1CCNCC1 ?
Reply text: no

Inquiry: What outcome does the record of this test show for N[C@H](Cc1c[nH]c2ccccc12)C(=O)O ?
Reply text: no

The measured values listed here are drawn from PubChem BioAssay (Tox21).
